- TARGET ENTITY: mouse Rbpj (53-474) E89G (mouse, UniProt P31266 53-474, E89G)
- Sequence (P31266 53-474 E89G): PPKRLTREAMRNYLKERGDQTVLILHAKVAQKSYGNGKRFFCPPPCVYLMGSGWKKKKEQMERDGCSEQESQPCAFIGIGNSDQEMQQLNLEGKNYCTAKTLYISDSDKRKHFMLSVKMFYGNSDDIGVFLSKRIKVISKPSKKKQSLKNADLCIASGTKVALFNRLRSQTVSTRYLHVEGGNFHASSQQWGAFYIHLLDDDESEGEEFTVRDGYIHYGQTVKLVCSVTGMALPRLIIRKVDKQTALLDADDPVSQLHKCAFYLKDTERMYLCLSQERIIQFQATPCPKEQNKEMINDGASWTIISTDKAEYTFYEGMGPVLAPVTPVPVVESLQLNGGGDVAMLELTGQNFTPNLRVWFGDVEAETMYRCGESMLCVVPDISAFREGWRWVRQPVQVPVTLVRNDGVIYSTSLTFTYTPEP
- ASSAY EXPLANATION: ITC
pKd: −log10 of the molar value.
Below, each entry is listed with its recorded pKd.

1) VLLSRKRRRQHGQLWFPEGFKVSEASKK [Notch1 RAM domain peptide (human Notch1 residues 1754-1781)]: ~7.70

Query SHARP residues 2776-2833 (domain or fragment) RASANENSRFHPGSMPVIDDRPADAGSGAGLRVNTSEGVVLLSYSGQKTEGPQRISAK yields pKd of ~8.30
